- ASSAY_DETAILS: in vivo
- TEST_PARAMETERS: male, New Zealand White, rabbit, 0.1 % in the drinking water, Serum PTU at sacrifice, normal chow, 0.1% propylthiouracil in drinking water

SMILES_NOTATION: CCCc1cc(=O)[nH]c(=S)[nH]1
concentration at 12 weeks: 1570 ng/mL

* * *

- Test system: rat vascular smooth muscle cells
- ASSAY_DETAILS: Vascular smooth muscle cell proliferation (cell number)
- Type: cell-based
- TEST_PARAMETERS: Rattus norvegicus, VSMC, 24 h, read-out: IC50 for VSMCs (proliferation)
pIC50: −log10 of the molar value.

COMPOUND: CCCc1cc(=O)[nH]c(=S)[nH]1 [Propylthiouracil, 6-n-propyl-2-thiouracil]
pIC50: 2.24

* * *

- ASSAY_DETAILS: in vivo
- TEST_PARAMETERS: male, New Zealand White, rabbit, 0.1 % in the drinking water, Serum PTU at sacrifice, 2% cholesterol diet, 0.1% propylthiouracil in drinking water

SMILES_NOTATION: CCCc1cc(=O)[nH]c(=S)[nH]1
UNIT_SYMBOL: ng/mL
concentration at 12 weeks: 1330
